The following compounds are listed with their measured inhibition values.
target: Pantothenate synthetase (Mycobacterium tuberculosis (strain ATCC 25618 / H37Rv)); assay: Coupled enzyme confirmation of inhibitors against recombinant Mtb PanC (AID 375); settings: coupled enzyme assay; at 10 µM, hits give high values;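 further: 0% = full reaction with vehicle and 100% = no enzyme background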
Reply numerically in %, unit not repeated.

Below, 5 compounds whose answers are already recorded.
CCn1c(=O)cc(OCC(=O)Nc2nc(C)cs2)c2ccccc21 :: 0
CN(CC(=O)Nc1ccc2c(c1)OCCO2)S(=O)(=O)c1ccc(Br)s1 :: 6
Cn1c(=O)c2c(nc(SCCOc3ccc4ccc(=O)oc4c3)n2C)n(C)c1=O :: 0
CCOC(=O)c1cc2c(=O)n3cccc(C)c3nc2n(CCc2ccccc2)c1=N :: 0
CC1CCN(S(=O)(=O)c2ccc(S(=O)(=O)NCC(=O)C(C)(C)C)cc2)CC1 :: 2

Input line: Please look up its inhibition: COC(=O)Oc1c(Br)c(=O)oc2ccccc12
Output line: 0

Input line: Another compound to check: Cc1cc2ccccc2n1CCNC(=O)C1CC1
Output line: 1

Input line: Another compound to check: CCC(CC)C(=O)Nc1cccc(C(=O)NCc2ccco2)c1
Output line: 6

Input line: Another compound to check: O=C(NC1CCS(=O)(=O)C1)OC1CCCCC1 (stereo not given)
Output line: 0

Input line: Another compound to check: CCC(NC(=O)Nc1cc(OC)c(OC)c(OC)c1)(C(F)(F)F)C(F)(F)F
Output line: 3

Input line: Another compound to check: CCN1CCN(C(=O)c2oc(=O)c3ccccc3c2-c2ccc(C)cc2)CC1
Output line: 0

Input line: Another compound to check: COCCNC(=O)c1ccc(CS(=O)(=O)c2c(Cl)cccc2Cl)o1
Output line: 0

Input line: Another compound to check: COc1ccccc1-c1nnc(SCC(=O)NC2CCCCC2)o1
Output line: 0

Input line: Another compound to check: COc1ccc(-c2ccc(Nc3ccc(S(=O)(=O)N4CCCC4)cc3)nn2)cc1OC
Output line: 11

Input line: Another compound to check: CC1CCCN(S(=O)(=O)c2coc(C(N)=O)c2)C1 (stereo not given)
Output line: 0
